System: RNA3WJ_0.0.0_5IB_3FAM (3WJ_0.0.0_5IB_3FAM RNA construct)
Assay: Thermal shift binding assay
Details: RNA sequence 3WJ_0.0.0_5IB_FAM; melting temperature in presence of compound
Text: Purpose: Test binding of compounds for RNA three way junction (for example, a construct of 38 nt). Thermal shift assay based on established fluorescence quenching assay utilizing FAM as fluorescence tag and Iowa Black as quencher. […] Stable formation of 3WJ upon compound binding would lead to quenching of the FAM fluorescence due to close proximity of the Iowa Black tag. Thermal unfolding leads to increase of fluorescence emission. Assay readout: FAM (465-510 nm) Thermal Shift. […]
Simple rule here: Melt. Temp. with cmpd less than 60 °C is Satisfied, otherwise Not satisfied.

CN(CCOCCOCCOCCNC(=O)CCC12c3cc(NC(=O)CCCCCCCN)ccc3C(c3ccc(NC(=O)CCCCCCCN)cc31)c1ccc(NC(=O)CCCCCCCN)cc12)C(=O)[C@@H]1C[C@H](N=[N+]=[N-])CN1C(=O)c1ccc(S(=O)(=O)F)cc1 = Not satisfied

Request: Hi there! Is Melt. Temp. with cmpd for "CN(CCOCCN(C)C(=O)[C@@H]1C[C@H](N=[N+]=[N-])CN1C(=O)c1ccc(S(=O)(=O)F)cc1)C(=O)CCC12c3cc(NC(=O)CCCCCCCN)ccc3C(c3ccc(NC(=O)CCCCCCCN)cc31)c1ccc(NC(=O)CCCCCCCN)cc12" below 60 °C, do you know?
Response: Not satisfied

Request: Hi there! Is Melt. Temp. with cmpd for "CCOC(=O)c1ccccc1NC(=O)N1CCCN(Cc2csc(C)n2)CC1" below 60 °C, do you know?
Response: Satisfied

Request: Hi there! Is Melt. Temp. with cmpd for "C#CCCCC(=O)NC[C@H]1O[C@H](O[C@H]2[C@H](O)[C@@H](O[C@H]3O[C@H](CN=[N+]=[N-])[C@@H](O)[C@H](N)[C@H]3O)[C@H](N)C[C@@H]2N)[C@H](O)[C@@H](O)[C@@H]1O" below 60 °C, do you know?
Response: Not satisfied

---

tested on: RNA3WJ_0.0.0_5IB_3FAM (3WJ_0.0.0_5IB_3FAM RNA construct); experiment: Thermal shift binding assay; details: RNA sequence 3WJ_0.0.0_5IB_FAM; with cmpd minus without cmpd
Counter-ions that a name gives are not always drawn.
experimental endpoint: Shift melt. Temp.

Example entries begin here.
CN(CCOCCOCCOCCNC(=O)CCC12c3cc(NC(=O)CCCCCCCN)ccc3C(c3ccc(NC(=O)CCCCCCCN)cc31)c1ccc(NC(=O)CCCCCCCN)cc12)C(=O)[C@@H]1C[C@H](N=[N+]=[N-])CN1C(=O)COc1ccc2c(=O)oc(=O)n(C)c2c1 [ARK000026] = −1.2 °C
O=C(O)CCC12C3=C(CCNC3)C(c3ccccc31)c1ccccc12 [ARK000019] = −0.3 °C
CCOC(=O)c1ccccc1NC(=O)N1CCCN(Cc2csc(C)n2)CC1 [ARK000021] = −19.0 °C
CN(CCOCCN(C)C(=O)[C@@H]1C[C@H](N=[N+]=[N-])CN1C(=O)COc1ccc2c(=O)oc(=O)n(C)c2c1)C(=O)CCC12c3cc(NC(=O)CCCCCCCN)ccc3C(c3ccc(NC(=O)CCCCCCCN)cc31)c1ccc(NC(=O)CCCCCCCN)cc12 [ARK000024] = +0.3 °C
CN(CCOCCOCCOCCNC(=O)CCC12c3cc(NC(=O)CCCCCCCN)ccc3C(c3ccc(NC(=O)CCCCCCCN)cc31)c1ccc(NC(=O)CCCCCCCN)cc12)C(=O)[C@@H]1C[C@H](N=[N+]=[N-])CN1C(=O)c1ccc(S(=O)(=O)F)cc1 [ARK000032] = +15.0 °C
[N-]=[N+]=NC[C@H]1O[C@H](O[C@@H]2[C@@H](O)[C@H](O[C@H]3O[C@H](CN)[C@@H](O)[C@H](O)[C@H]3O)[C@@H](N)C[C@H]2N)[C@H](O)[C@@H](N)[C@@H]1O [Ark000007, 6″-Azido-Kanamycin a Hydrochloride Salt] = +4.4 °C
NCCCC[C@@H](N)C(=O)Nc1ccc2c(c1)C1c3cc(NC(=O)[C@H](N)CCCCN)ccc3C2c2ccc(NC(=O)[C@H](N)CCCCN)cc21 [ARK000016] = +21.3 °C
CC(C)(C)OC(=O)NCCCC[C@H](NC(=O)OC(C)(C)C)C(=O)Nc1ccc2c(c1)C1(CCC(=O)NCCOCCOCCN)c3cc(NC(=O)[C@H](CCCCNC(=O)OC(C)(C)C)NC(=O)OC(C)(C)C)ccc3C2c2ccc(NC(=O)[C@H](CCCCNC(=O)OC(C)(C)C)NC(=O)OC(C)(C)C)cc21 [ARK000022] = +0.4 °C

Request: Shift melt. Temp. for C#CCCCC(=O)NC[C@H]1O[C@H](O[C@H]2[C@H](O)[C@@H](O[C@H]3O[C@H](CN=[N+]=[N-])[C@@H](O)[C@H](N)[C@H]3O)[C@H](N)C[C@@H]2N)[C@H](O)[C@@H](O)[C@@H]1O [ARK000009] ?
Response: +0.6 °C

---

test system: 17CAG and 41CAG RNA (httmRNA); assay: Ligand observed NMR binding assay for CAG repeat RNA; details: 3 μM RNA, 200 μM compound, 288 K
experimental endpoint: STD signal

Example entries begin here.
OCc1cccc(-c2cccnc2)c1 = distinct
CC(O)CNCc1ccc(-c2ccccc2)o1 (centres unmarked) = distinct
O=C(c1ccc(Cl)cc1)N1CCN(c2ccc([N+](=O)[O-])c3ncccc23)CC1 [CPNQ, reference compound] = distinct
NCc1ccc2ccccc2n1 = weak

Request: STD signal for "Cc1nn(-c2ccccc2)nc1CN" ?
Response: distinct

---

# Melt. Temp. with cmpd per entry
Tested on: RNA3WJ_0.0.0_5IB_3FAM (3WJ_0.0.0_5IB_3FAM RNA construct)
Experiment: Thermal shift binding assay
Settings: RNA sequence 3WJ_0.0.0_5IB_FAM; melting temperature in presence of compound
Excerpt: Purpose: Test binding of compounds for RNA three way junction (for example, a construct of 38 nt). Thermal shift assay based on established fluorescence quenching assay utilizing FAM as fluorescence tag and Iowa Black as quencher. […] Stable formation of 3WJ upon compound binding would lead to quenching of the FAM fluorescence due to close proximity of the Iowa Black tag. Thermal unfolding leads to increase of fluorescence emission. Assay readout: FAM (465-510 nm) Thermal Shift. […]
Could you give me the number in °C? Just the number is fine.

Example entries begin here.
CN(CCOCCN(C)C(=O)[C@@H]1C[C@H](N=[N+]=[N-])CN1C(=O)c1ccc2c(=O)oc(=O)n(C)c2c1)C(=O)CCC12c3cc(NC(=O)CCCCCCCN)ccc3C(c3ccc(NC(=O)CCCCCCCN)cc31)c1ccc(NC(=O)CCCCCCCN)cc12 = 62.4
CN(c1ccc(-c2ccc(-c3cn[nH]c3)cc2O)nn1)C1CC(C)(C)NC(C)(C)C1 = 60.3
CN(CCCN)CCCNC(=O)c1ccc2c(c1)C1c3cc(C(=O)NCCCN(C)CCCN)ccc3C2c2ccc(C(=O)NCCCN(C)CCCN)cc21 = 84.1
CC(C)(C)OC(=O)NCCCC[C@H](NC(=O)OC(C)(C)C)C(=O)Nc1ccc2c(c1)C1(CCC(=O)NCCOCCOCCN)c3cc(NC(=O)[C@@H](CCCCNC(=O)OC(C)(C)C)NC(=O)OC(C)(C)C)ccc3C2c2ccc(NC(=O)[C@@H](CCCCNC(=O)OC(C)(C)C)NC(=O)OC(C)(C)C)cc21 = 60.7

Request: Melt. Temp. with cmpd for "NCCCC[C@@H](N)C(=O)Nc1ccc2c(c1)C1c3cc(NC(=O)[C@H](N)CCCCN)ccc3C2c2ccc(NC(=O)[C@H](N)CCCCN)cc21" ?
Response: 83.8

Request: Melt. Temp. with cmpd for "O=C(O)CCC12C3=C(CNCC3)C(c3ccccc31)c1ccccc12" ?
Response: 60.2

---

system: RNA3WJ_0.0.0_5IB_3FAM (3WJ_0.0.0_5IB_3FAM RNA construct); test: Thermal shift binding assay; conditions: 1 μM RNA, 8 μM compound, 10 mM CacoK pH 7.2, 30 mM NaCl
experimental endpoint: Temp. Shift (°C)
Could you give me the number in °C? Just the number is fine.

CN(CCCN)CCCNC(=O)c1ccc2c(c1)C1c3cc(C(=O)NCCCN(C)CCCN)ccc3C2c2ccc(C(=O)NCCCN(C)CCCN)cc21 [Ark000013] = 24.2

// switching to the query compound
Request: Param readout = Temp. Shift; param system = RNA3WJ_0.0.0_5IB_3FAM (3WJ_0.0.0_5IB_3FAM RNA construct); param query = NCCCCCCCNC(=O)c1ccc2c(c1)C1c3cc(C(=O)NCCCCCCCN)ccc3C2c2ccc(C(=O)NCCCCCCCN)cc21 [Ark000014] ; response: value
Response: 1.6

---

# Shift melt. Temp. per entry
system: RNA3WJ_0.0.0_5IB_3FAM (3WJ_0.0.0_5IB_3FAM RNA construct); test: Thermal shift binding assay; details: RNA sequence 3WJ_0.0.0_5IB_FAM; with cmpd minus without cmpd
Could you give me the number in °C? Just the number is fine.

Example entries begin here.
N[C@@H](Cc1c[nH]cn1)C(=O)Nc1ccc2c(c1)C1c3cc(NC(=O)[C@@H](N)Cc4c[nH]cn4)ccc3C2c2ccc(NC(=O)[C@@H](N)Cc3cnc[nH]3)cc21 [ARK000017] = −0.6
CN(CCOCCOCCNC(=O)CCC12c3cc(NC(=O)CCCCCCCN)ccc3C(c3ccc(NC(=O)CCCCCCCN)cc31)c1ccc(NC(=O)CCCCCCCN)cc12)C(=O)[C@@H]1C[C@H](N=[N+]=[N-])CN1C(=O)COc1ccc2c(=O)oc(=O)n(C)c2c1 [ARK000025] = −10.2
CN(c1ccc(-c2ccc(-c3cn[nH]c3)cc2O)nn1)C1CC(C)(C)NC(C)(C)C1 [ARK000011] = −1.4

// switching to the query molecule
Request: Param readout = Shift melt. Temp.; param system = RNA3WJ_0.0.0_5IB_3FAM (3WJ_0.0.0_5IB_3FAM RNA construct); param query = CN(CCCN)CCCNC(=O)c1ccccc1 [Ark000039] ; response: value
Response: −1.2
